Assay: Observed water / reaction buffer solubility of ligands
Conditions: Table 1
Where no end group is shown, it is not given here.
measure: Observed water solubility

CSGGGDWFKAFYDKVAEKFKEAF [ApoAI-4FN] | Good
CGGGVFLQKYPHTHLVHQA [Myostatin 1] | Good
CSGGGWGWSLSHGYQVK [ScG3] | Good
YQDMVLWKDVFRKNNQLAPVGPSLC [CH401-Rat] | Poor

Reference for the values: patent US20240350422A1
